Data provenance is paper PMC3954981.

Test system: PADs 1, 2, 3, and 4
Experiment: Library screening, inhibition of the PADs described in words
Assay type: biochemical, human
Conditions: 10 μM, PADs 1–4
Measurement kind: inhibition of the PADs (in words)

1. NC1=CC(=O)c2cccnc2C1=O	strong inhibition
2. CCOC(=O)c1nc(C(=O)OCC)c(C(=O)OCC)c(-c2ccc(OC)c(OC)c2OCc2ccccc2)c1C	little to no inhibition
3. COC(=O)c1nc(C(=O)OC)c(N)c(-c2ccccc2Br)c1C	little to no inhibition
4. NC1=CC(=O)c2ccc(-c3cccc(C(=O)O)n3)nc2C1=O	strong inhibition

Record inhibition of the PADs (in words) for all entries; do not skip any.
1. COC(=O)c1nc(C(C)=O)c2[nH]c3ccccc3c2c1C
2. COc1ccc2nc(C#N)ccc2c1
3. COc1ccc2ncccc2c1[N+](=O)[O-]

1. little to no inhibition
2. no inhibition
3. no inhibition

Record inhibition of the PADs (in words) for all entries; do not skip any.
1. COC(=O)c1nnc(C(=O)OC)c(-c2ccc3c([N+](=O)[O-])c(OC)ccc3n2)n1
2. COC1=C(Br)C(=O)c2ncccc2C1=O
3. COC(=O)c1cccc(-c2ccc3ccc(Br)c(O)c3n2)n1

no inhibition
strong inhibition
no inhibition

---

System: PADs 1, 2, 3, and 4
Experiment: Library screening, inhibition of the PADs described in words
Format: biochemical, human
Settings: 10 μM, PADs 1–4
Measurement kind: inhibition of the PADs (in words)

1. O=C(O)c1cccc(-c2ccc3ccc(Br)c(OCc4ccccc4)c3n2)n1 [Compound 23]	no inhibition
2. COC(=O)c1nnc(C(=O)OC)c(-c2ccc3cc(OC)ccc3n2)n1 [Compound 26]	no inhibition
3. COC(=O)c1cc(-c2ccccc2)c(C(=O)OC)c(-c2ccc3ccccc3n2)n1 [Compound 24]	no inhibition
